SUBJECT_OF_TEST: full-length beta-Catenin (Uniprot ID P35222) (Homo sapiens, UniProt P35222)
Construct: 10 nM full-length beta-Catenin (Uniprot ID P35222)
Sequence (P35222 whole entry): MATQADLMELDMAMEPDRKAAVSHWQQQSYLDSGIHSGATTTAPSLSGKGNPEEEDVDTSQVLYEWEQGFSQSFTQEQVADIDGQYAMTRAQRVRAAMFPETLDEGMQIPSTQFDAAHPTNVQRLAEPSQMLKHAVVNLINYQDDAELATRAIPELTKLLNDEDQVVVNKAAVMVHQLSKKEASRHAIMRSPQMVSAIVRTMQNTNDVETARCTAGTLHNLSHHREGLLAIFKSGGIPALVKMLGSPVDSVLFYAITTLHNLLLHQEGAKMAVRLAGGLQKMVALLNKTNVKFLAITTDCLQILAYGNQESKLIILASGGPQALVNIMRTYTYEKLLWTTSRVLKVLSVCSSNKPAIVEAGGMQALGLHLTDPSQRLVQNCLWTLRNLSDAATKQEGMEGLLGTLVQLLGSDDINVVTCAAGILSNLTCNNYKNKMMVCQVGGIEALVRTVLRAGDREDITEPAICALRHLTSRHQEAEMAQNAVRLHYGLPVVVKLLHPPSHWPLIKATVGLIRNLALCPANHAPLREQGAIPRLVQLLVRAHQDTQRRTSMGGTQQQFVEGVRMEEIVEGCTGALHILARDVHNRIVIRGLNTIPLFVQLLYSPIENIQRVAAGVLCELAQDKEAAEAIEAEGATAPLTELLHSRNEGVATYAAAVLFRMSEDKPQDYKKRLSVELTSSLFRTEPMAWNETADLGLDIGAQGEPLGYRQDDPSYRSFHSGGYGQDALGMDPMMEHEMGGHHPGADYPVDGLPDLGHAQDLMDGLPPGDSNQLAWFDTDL
ASSAY_OVERVIEW: Fluorescence polarization IC50 (beta-catenin / 5FAM-TCF4 10-53 competition)
Assay type: binding
STUDY_CONDITIONS: read-out: bCat FP IC50
METRIC: IC50 (µM)
Give a bare numeral; the unit µM is implied.

# example entries with known answers
CC[C@H](C)[C@@H]1NC(=O)[C@H](CC(=O)O)NC(=O)[C@]2(CC=CCCCC3(CCCC=CCCCCCC[C@@](C)(C(=O)N[C@@H](Cc4ccccc4)C(=O)N[C@@H](Cc4csc5ccccc45)C(=O)N[C@@H](CCC(N)=O)C(N)=O)NC(=O)[C@H](CCC(N)=O)NC(=O)[C@H](Cc4ccccc4)NC(=O)[C@H](C)NC(=O)[C@H](C)NC(=O)[C@H](CCCC(=O)O)NC(=O)[C@H](CC(=O)O)NC3=O)NC1=O)CCCN2C(C)=O (stereo partly drawn): 0.064
CC[C@H](C)[C@@H]1NC(=O)[C@H](CC(=O)O)NC(=O)[C@]2(CC=CCCCC3(CCCC=CCCCCCC[C@@](C)(C(=O)N[C@@H](Cc4ccccc4)C(=O)N[C@@H](Cc4csc5ccccc45)C(=O)N[C@@H](CCC(N)=O)C(N)=O)NC(=O)[C@H](CCC(N)=O)NC(=O)[C@H](Cc4ccccc4)NC(=O)[C@H](C)NC(=O)[C@H](C)NC(=O)[C@H](CN(CC)CC(=O)O)NC(=O)[C@H](CC(=O)O)NC3=O)NC1=O)CCCN2C(C)=O (stereo partly drawn) [I-609]: 0.08

Now for the molecule whose IC50 we want.
Request: Endpoint output: IC50 of CC[C@H](C)[C@@H]1NC(=O)[C@H](CC(=O)O)NC(=O)[C@]2(CC=CCCCC3(CCCC=CCCCCCC[C@@](C)(C(=O)N[C@@H](Cc4ccccc4)C(=O)N[C@@H](Cc4csc5ccccc45)C(=O)N[C@@H](CCC(N)=O)C(N)=O)NC(=O)[C@H](CCC(N)=O)NC(=O)[C@H](Cc4ccccc4)NC(=O)[C@H](C)NC(=O)[C@H](C)NC(=O)[C@H](CN(CC(=O)O)CC(F)(F)F)NC(=O)[C@H](CC(=O)O)NC3=O)NC1=O)CCCN2C(C)=O (stereo partly drawn) [I-611] . Value?
Response: 0.055

* * *

SUBJECT_OF_TEST: full-length beta-Catenin (Uniprot ID P35222) (Homo sapiens)
Construct: 10 nM full-length beta-Catenin (Uniprot ID P35222)
ASSAY_OVERVIEW: Fluorescence polarization IC50 (beta-catenin / 5FAM-TCF4 10-53 competition)
Assay type: binding
STUDY_CONDITIONS: fluorescence polarization, beta-catenin; read-out: FP EC50
Examples of compounds with documented IC50 follow.
# unit: nM | format: bare number

See these solved cases before continuing.
CC(=O)N1CCC[C@]12CC=CCCCC1(CCCC=CCCCOC(=O)N3CC[C@@](C(=O)N[C@@H](Cc4ccccc4Cl)C(=O)N[C@@H](Cc4csc5ccccc45)C(=O)N[C@@H](CC(C)C)C(N)=O)(C3)NC(=O)[C@H](CC(C)C)NC(=O)[C@H](Cc3ccccc3)NC(=O)[C@H](C)NC(=O)[C@H](C)NC(=O)[C@H](CC(=O)O)NC(=O)[C@H](CC(=O)O)NC1=O)NC(=O)[C@H](CC(C)C)NC(=O)[C@H](CC(=O)O)NC2=O (stereo partly drawn) [I-1418]: 106
CC(=O)N1CCC[C@]12CC=CCCCC1(CCCC=CCCCCCC[C@@](C)(C(=O)N[C@@H](Cc3ccccc3)C(=O)N[C@@H](Cc3csc4ccccc34)C(=O)N[C@@H](CCC(N)=O)C(N)=O)NC(=O)[C@H](C)NC(=O)[C@H](Cc3cccc(C(F)(F)F)c3)NC(=O)[C@H](C)NC(=O)[C@H](C)NC(=O)[C@H](CC(=O)O)NC(=O)[C@H](CC(=O)O)NC1=O)NC(=O)[C@H](C)NC(=O)[C@H](CC(=O)O)NC2=O (stereo partly drawn) [I-374]: 3010
CC(=O)N1CCC[C@]12CC=CCCCC1(CCCC=CCCCOC(=O)N3CC[C@@](C(=O)N[C@@H](Cc4ccsc4)C(=O)N[C@@H](Cc4csc5ccccc45)C(=O)N[C@@H](CCC(N)=O)C(N)=O)(C3)NC(=O)[C@H]([C@@H](C)O)NC(=O)[C@H](Cc3ccccc3)NC(=O)[C@H](C)NC(=O)[C@H](C)NC(=O)[C@H](Cc3cccc(C(=O)O)c3)NC(=O)[C@H](CC(=O)O)NC1=O)NC(=O)[C@H](CC(C)(C)C)NC(=O)[C@H](CC(=O)O)NC2=O (stereo partly drawn) [I-981]: 199
CC(=O)N1CCC[C@]12CC=CCCCC1(CCCC=CCCCCCC[C@@](C)(C(=O)N[C@@H](Cc3ccccc3Cl)C(=O)N[C@@H](Cc3csc4ccccc34)C(=O)N[C@@H](CCC(N)=O)C(N)=O)NC(=O)[C@H]([C@@H](C)O)NC(=O)[C@H](Cc3ccccc3)NC(=O)[C@H](C)NC(=O)[C@H](C)NC(=O)[C@H](CC(=O)O)NC(=O)[C@H](CC(=O)O)NC1=O)NC(=O)[C@H](CC(C)(C)C)NC(=O)[C@H](CC(=O)O)NC2=O (stereo partly drawn) [I-1086]: 12
CC(=O)N1CCC[C@]12CC=CCCCC1(CCCC=CCCCCOC(=O)N3CC[C@@](C(=O)N[C@@H](Cc4ccsc4)C(=O)N[C@@H](Cc4csc5ccccc45)C(=O)N[C@@H](Cc4c[nH]cn4)C(=O)N[C@H](C)C(N)=O)(C3)NC(=O)[C@H](CC(N)=O)NC(=O)[C@H](Cc3ccccc3)NC(=O)[C@H](C)NC(=O)[C@H](C)NC(=O)[C@H](CC(=O)O)NC(=O)[C@H](CC(=O)O)NC1=O)NC(=O)[C@H](CC(C)(C)C)NC(=O)[C@H](CC(=O)O)NC2=O (stereo partly drawn) [I-833]: 8
CC(=O)N1CCC[C@]12CC=CCCCC1(CCCC=CCCCCCC[C@@](C)(C(=O)N[C@@H](Cc3ccccc3Cl)C(=O)N[C@@H](Cc3csc4ccccc34)C(=O)N[C@@H](CCC(N)=O)C(N)=O)NC(=O)[C@H]([C@@H](C)O)NC(=O)[C@H](Cc3ccccc3)NC(=O)[C@H](C)NC(=O)[C@H](C)NC(=O)[C@H](CC(=O)O)NC(=O)[C@H](CC(=O)O)NC1=O)NC(=O)[C@H](CC(C)(C)C)NC(=O)[C@H](CC(=O)O)NC2=O (stereo partly drawn) [I-1087]: 9
CC(=O)N1CCC[C@]12CC=CCCCC1(CCCC=CCCCCCC[C@@](C)(C(=O)N[C@@H](Cc3ccccc3)C(=O)N[C@@H](Cc3csc4ccccc34)C(=O)N[C@@H](CCC(N)=O)C(N)=O)NC(=O)[C@H](C)NC(=O)[C@H](Cc3cccc(C(F)(F)F)c3)NC(=O)[C@H](C)NC(=O)[C@H](C)NC(=O)[C@H](CC(=O)O)NC(=O)[C@H](CC(=O)O)NC1=O)NC(=O)[C@H](C)NC(=O)[C@H](CC(=O)O)NC2=O (stereo partly drawn) [I-375]: 3010
CC(=O)N1CCC[C@]12CC=CCCCC1(CCCC=CCCCCCC[C@@](C)(C(=O)N[C@@H](Cc3ccccc3Cl)C(=O)N[C@@H](Cc3csc4ccccc34)C(=O)N[C@@H](C(N)=O)[C@H](C)O)NC(=O)[C@H]([C@@H](C)O)NC(=O)[C@H](Cc3ccccc3)NC(=O)[C@H](C)NC(=O)[C@H](C)NC(=O)[C@H](CCC(=O)O)NC(=O)[C@H](CC(=O)O)NC1=O)NC(=O)[C@H](CC(C)(C)C)NC(=O)[C@H](CC(=O)O)NC2=O (stereo partly drawn) [I-1094]: 46

As a next step, examine the compound that follows.
Request: Name the reported IC50 value associated with the compound CC(=O)N1CCC[C@]12CC=CCCCC1(CCCC=CCCCOC(=O)N3CC[C@@](C(=O)N[C@@H](Cc4ccccc4Cl)C(=O)N[C@@H](Cc4csc5ccccc45)C(=O)N[C@@H](CCC(N)=O)C(N)=O)(C3)NC(=O)[C@H](CC(N)=O)NC(=O)[C@H](Cc3ccccc3)NC(=O)[C@H](C)NC(=O)[C@H](C)NC(=O)[C@H](CN(CC(=O)O)Cc3c(F)c(F)c(F)c(F)c3F)NC(=O)[C@H](CC(=O)O)NC1=O)NC(=O)[C@H](CC(C)(C)C)NC(=O)[C@H](CC(=O)O)NC2=O (stereo partly drawn) [I-1448]
Response: 20
